Origin of measurements: paper PMC3335792

Molecular target: T1, Mtb beta-clamp, OregonGreen488-labeled (Mycobacterium tuberculosis, UniProt P9WNU1 1-402)
T1 sequence: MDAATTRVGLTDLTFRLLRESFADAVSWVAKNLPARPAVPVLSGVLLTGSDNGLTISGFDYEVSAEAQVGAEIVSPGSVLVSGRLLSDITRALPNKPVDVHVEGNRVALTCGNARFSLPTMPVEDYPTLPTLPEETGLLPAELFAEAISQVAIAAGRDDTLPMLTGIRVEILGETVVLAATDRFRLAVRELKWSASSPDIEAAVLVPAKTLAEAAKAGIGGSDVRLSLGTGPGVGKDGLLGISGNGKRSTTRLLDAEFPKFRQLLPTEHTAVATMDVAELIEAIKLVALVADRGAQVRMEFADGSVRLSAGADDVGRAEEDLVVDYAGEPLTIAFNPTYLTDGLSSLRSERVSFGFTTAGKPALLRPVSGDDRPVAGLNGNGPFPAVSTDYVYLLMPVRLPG
Assay: fluorescence intensity titration (OregonGreen-labeled protein); apparent Kd; no Mg2+; 20 mM Tris-Cl pH 7.5, 1 mM DTT, 0.2 mM EDTA, 40 mM NaCl, 22 C, 200 or 500 nM labeled clamp; ex 490 nm, em 517 nm
Conditions: protein: recombinant; tags: C-terminal 6xHis; OregonGreen488 maleimide; chain copies: 2; label: none in fluorescence assay; 32P in EMSA; nicked duplex, 18-mer and 10-mer annealed to 28-mer, blunt ends
reported_endpoint: pKd
As a rule, pKd stands for the negative log10 of the concentration, concentration in M.

Prompt line: GET /values?readout=pKd&item= nicked duplex (28-mer template + 18-mer + dA10) (dsDNA) DNA 1: TTTTTTTTTTCCCTTGCTATACGATGGG DNA 2: CCCATCGTATAGCAAGGG DNA 3: AAAAAAAAAA
Response line: 6.28
